# EC50 values compiled below
# Test system: NS5A chimeric genotype 1b Con1 replicon with genotype 3a S52 strain NS5A gene
# measurement protocol: Replicon assay, genotype 3a NS5A chimera
# Assay type: cell-based, HCV
# details: Hepatitis C virus, read-out: 3a (s) (nM), genotype 3a NS5A chimeric replicon, stable replicon cells (s)

compound string	readout unit	EC50
COC(=O)N[C@H](C(=O)N1[C@@H](C)CC[C@H]1c1ncc(-c2ccc3c(c2)COc2cc4c(ccc5nc([C@@H]6CC[C@H](C)N6C(=O)[C@@H](NC(=O)OC)[C@@H](C)O)[nH]c54)cc2-3)[nH]1)C(C)C	nM	0.04
CC[C@H]1CC[C@@H](c2ncc(-c3ccc4c(c3)COc3cc5c(ccc6nc([C@@H]7C[C@@H]8CCC[C@@H]8N7C(=O)[C@@H](NC(=O)OC)C(C)C)[nH]c65)cc3-4)[nH]2)N1C(=O)[C@@H](NC(=O)OC)C1CCOCC1	nM	0.212
